// IC50 lookup, one value per entry
targetOfAssay: Rat plasma DPP-IV (Rattus norvegicus, UniProt P14740)
Construct: Rat plasma DPP-IV
Sequence (P14740 38-767 limits assumed): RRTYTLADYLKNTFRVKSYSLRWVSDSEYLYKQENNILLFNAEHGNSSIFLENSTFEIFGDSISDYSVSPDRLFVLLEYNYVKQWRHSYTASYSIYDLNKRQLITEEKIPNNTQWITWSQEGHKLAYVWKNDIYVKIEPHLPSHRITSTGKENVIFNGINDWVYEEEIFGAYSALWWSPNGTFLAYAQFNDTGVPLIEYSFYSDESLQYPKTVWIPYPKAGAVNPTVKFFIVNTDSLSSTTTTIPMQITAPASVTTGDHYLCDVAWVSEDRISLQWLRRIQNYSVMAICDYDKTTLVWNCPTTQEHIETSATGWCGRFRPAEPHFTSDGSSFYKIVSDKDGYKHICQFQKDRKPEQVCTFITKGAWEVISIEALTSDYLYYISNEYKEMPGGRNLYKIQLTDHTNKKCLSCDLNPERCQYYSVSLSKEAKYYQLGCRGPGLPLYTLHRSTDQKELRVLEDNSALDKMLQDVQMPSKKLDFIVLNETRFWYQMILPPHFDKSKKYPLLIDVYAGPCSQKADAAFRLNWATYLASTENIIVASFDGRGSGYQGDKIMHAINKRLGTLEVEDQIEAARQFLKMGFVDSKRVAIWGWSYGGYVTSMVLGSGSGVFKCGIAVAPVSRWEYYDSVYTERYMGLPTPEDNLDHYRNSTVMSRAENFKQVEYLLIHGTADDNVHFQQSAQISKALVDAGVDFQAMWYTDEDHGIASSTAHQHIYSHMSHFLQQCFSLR
assayRemarks: Plasma DPP-IV inhibitory activity (fluorescence assay, Gly-Pro-MCA substrate), rat plasma
conditionSet: rat plasma (10-fold diluted), room temperature, 60 min

{"compound": "N#Cc1ccc(N2CCN([C@H]3CC[C@@H]([C@H](N)C(=O)N4CCSC4)CC3)CC2)nc1 [Example 2]", "targetOfAssay": "Rat plasma DPP-IV (Rattus norvegicus, UniProt P14740)", "IC50 (nM)": 1.4}
{"compound": "N[C@H](C(=O)N1CCSC1)[C@H]1CC[C@@H](N2CCN(c3nc4ccccc4s3)CC2)CC1 [Example 14]", "targetOfAssay": "Rat plasma DPP-IV (Rattus norvegicus, UniProt P14740)", "IC50 (nM)": 1.4}
